- target_entity: HLA-A*26:01
- procedure_summary: IEDB peptide-MHC binding, purified MHC/direct/fluorescence; filed as Kd, often an IC50 or EC50 that approximates it; bounds were set here for any values at or beyond the usual limits of such assays
- measurement_setup: source organism: Mycobacterium tuberculosis
pKd: −log10 of the molar value.
property_measured: pKd

>>> numeric_value("LVIDNLYGF")
7.91

====

- target_entity: HLA-A*03:01
- procedure_summary: IEDB peptide-MHC binding, purified MHC/direct/fluorescence; filed as Kd, often an IC50 or EC50 that approximates it; bounds were set here for any values at or beyond the usual limits of such assays
- measurement_setup: source organism: Yersinia pestis
property_measured: Kd

>>> result("TMPELAWAV")
"≥ 20 µM"

====

- target_entity: HLA-B*07:02
- procedure_summary: IEDB peptide-MHC binding, purified MHC/direct/fluorescence; filed as Kd, often an IC50 or EC50 that approximates it; bounds were set here for any values at or beyond the usual limits of such assays
- measurement_setup: source organism: Influenza A virus
pKd: −log10 of the molar value.
property_measured: pKd

>>> result("DWSGYSGSF")
"≤ 4.70"

====

Below: a set of entries, each annotated with reported Kd.
- target_entity: HLA-A*32:01
- procedure_summary: IEDB peptide-MHC binding, purified MHC/competitive/radioactivity; filed as Kd, often an IC50 or EC50 that approximates it; bounds were set here for any values at or beyond the usual limits of such assays
- measurement_setup: source organism: Lymphocytic choriomeningitis virus (strain Armstrong)
property_measured: Kd

>>> result("FTSDVKAAVI")
"≥ 69.9 µM"
>>> result("DLMGVPYCNY")
"≥ 53 µM"

====

- target_entity: HLA-A*33:01
- procedure_summary: IEDB peptide-MHC binding, purified MHC/competitive/radioactivity; filed as Kd, often an IC50 or EC50 that approximates it; bounds were set here for any values at or beyond the usual limits of such assays
- measurement_setup: source organism: Triticum aestivum
property_measured: Kd

>>> result("QQQQQQQQQK")
"≥ 70 µM"

====

- target_entity: HLA-B*35:01
- procedure_summary: IEDB peptide-MHC binding, purified MHC/direct/fluorescence; filed as Kd, often an IC50 or EC50 that approximates it; bounds were set here for any values at or beyond the usual limits of such assays
- measurement_setup: source organism: Yersinia pestis
property_measured: Kd (nM)

>>> numeric_value("TMPELAWAV")
420

====

- target_entity: HLA-A*02:01
- procedure_summary: IEDB peptide-MHC binding, purified MHC/direct/fluorescence; filed as Kd, often an IC50 or EC50 that approximates it; bounds were set here for any values at or beyond the usual limits of such assays
- measurement_setup: source organism: Influenza A virus
pKd: −log10 of the molar value.
property_measured: pKd

>>> result("DWSGYSGSF")
"≤ 4.70"

====

- target_entity: HLA-A*29:02
- procedure_summary: IEDB peptide-MHC binding, purified MHC/direct/fluorescence; filed as Kd, often an IC50 or EC50 that approximates it; bounds were set here for any values at or beyond the usual limits of such assays
- measurement_setup: source organism: Vibrio parahaemolyticus RIMD 2210633
property_measured: Kd

>>> result("SMNYPNSYK")
"≥ 20 µM"

====

- target_entity: HLA-B*08:01
- procedure_summary: IEDB peptide-MHC binding, purified MHC/competitive/fluorescence; bounds were set here for any values at or beyond the usual limits of such assays
- measurement_setup: source organism: Ateles geoffroyi
property_measured: IC50

>>> result("LPADPASVL")
"≥ 20 µM"

====

Below: a set of entries, each annotated with reported pKd.
- target_entity: HLA-A*33:01
- procedure_summary: IEDB peptide-MHC binding, purified MHC/competitive/radioactivity; filed as Kd, often an IC50 or EC50 that approximates it; bounds were set here for any values at or beyond the usual limits of such assays
- measurement_setup: source organism: Mammarenavirus brazilense
pKd: −log10 of the molar value.
property_measured: pKd

>>> numeric_value("DFTLFIKTGH")
6.88
>>> numeric_value("NYILCYRKPH")
5.66

====

- target_entity: HLA-B*57:01
- procedure_summary: IEDB peptide-MHC binding, purified MHC/direct/fluorescence; filed as Kd, often an IC50 or EC50 that approximates it; bounds were set here for any values at or beyond the usual limits of such assays
- measurement_setup: source organism: Entamoeba histolytica HM-1:IMSS
pKd: −log10 of the molar value.
property_measured: pKd

>>> numeric_value("TAYEKLWYI")
6.19

====

- target_entity: HLA-A*02:06
- procedure_summary: IEDB peptide-MHC binding, purified MHC/competitive/radioactivity; filed as Kd, often an IC50 or EC50 that approximates it; bounds were set here for any values at or beyond the usual limits of such assays
- measurement_setup: source organism: Lymphocytic choriomeningitis virus (strain Armstrong) (clone 53b)
pKd: −log10 of the molar value.
property_measured: pKd

>>> numeric_value("ALPHIIDEV")
7.18

====

- target_entity: HLA-A*68:01
- procedure_summary: IEDB peptide-MHC binding, purified MHC/competitive/radioactivity; filed as Kd, often an IC50 or EC50 that approximates it; bounds were set here for any values at or beyond the usual limits of such assays
- measurement_setup: source organism: Dengue virus 3 Martinique/1243/1999
property_measured: Kd (nM)

>>> numeric_value("FLALGFFLR")
2.14
>>> numeric_value("YLALIATFK")
31.8
>>> numeric_value("MVSRLLLNR")
13
>>> numeric_value("ITANPVVTK")
47.9

====

- target_entity: HLA-A*02:06
- procedure_summary: IEDB peptide-MHC binding, purified MHC/competitive/radioactivity; filed as Kd, often an IC50 or EC50 that approximates it; bounds were set here for any values at or beyond the usual limits of such assays
- measurement_setup: source organism: Lymphocytic choriomeningitis virus (strain Armstrong)
property_measured: Kd (µM)

>>> numeric_value("AVYNFATCGI")
0.0252
>>> numeric_value("SCDDVVFGI")
14.5

====

- target_entity: HLA-A*03:01
- procedure_summary: IEDB peptide-MHC binding, purified MHC/competitive/radioactivity; filed as Kd, often an IC50 or EC50 that approximates it; bounds were set here for any values at or beyond the usual limits of such assays
- measurement_setup: source organism: Mammarenavirus machupoense
pKd: −log10 of the molar value.
property_measured: pKd

>>> numeric_value("TMLRNSELCH")
4.99

====

- target_entity: HLA-A*03:01
- procedure_summary: IEDB peptide-MHC binding, purified MHC/competitive/fluorescence; filed as Kd, often an IC50 or EC50 that approximates it; bounds were set here for any values at or beyond the usual limits of such assays
- measurement_setup: source organism: Trypanosoma cruzi
property_measured: Kd (nM)

>>> numeric_value("KLSSEQLSK")
108

====

- target_entity: HLA-B*40:01
- procedure_summary: IEDB peptide-MHC binding, purified MHC/direct/fluorescence; filed as Kd, often an IC50 or EC50 that approximates it; bounds were set here for any values at or beyond the usual limits of such assays
- measurement_setup: source organism: Vibrio cholerae
property_measured: Kd

>>> result("IHYAGWVSL")
"≥ 20 µM"
>>> result("IVKQGRDAL")
"≥ 20 µM"
>>> result("YFRNSGMTY")
"≥ 20 µM"
>>> result("DTDISQLHH")
"≥ 20 µM"

====

- target_entity: HLA-A*02:03
- procedure_summary: IEDB peptide-MHC binding, purified MHC/direct/fluorescence; filed as Kd, often an IC50 or EC50 that approximates it; bounds were set here for any values at or beyond the usual limits of such assays
- measurement_setup: source organism: Reston ebolavirus
property_measured: Kd

>>> result("TTDDSTSYY")
"≥ 20 µM"

====

- target_entity: HLA-B*58:01
- procedure_summary: IEDB peptide-MHC binding, purified MHC/competitive/fluorescence; filed as Kd, often an IC50 or EC50 that approximates it; bounds were set here for any values at or beyond the usual limits of such assays
- measurement_setup: source organism: Burkholderia mallei SAVP1
pKd: −log10 of the molar value.
property_measured: pKd

>>> result("MVFGRFSFA")
"≤ 5.30"

====

- target_entity: HLA-A*31:01
- procedure_summary: IEDB peptide-MHC binding, purified MHC/competitive/radioactivity; filed as Kd, often an IC50 or EC50 that approximates it; bounds were set here for any values at or beyond the usual limits of such assays
- measurement_setup: source organism: SARS coronavirus ZJ0301
property_measured: Kd (nM)

>>> numeric_value("LLNSNALLR")
148

====

- target_entity: HLA-A*11:01
- procedure_summary: IEDB peptide-MHC binding, purified MHC/competitive/fluorescence; filed as Kd, often an IC50 or EC50 that approximates it; bounds were set here for any values at or beyond the usual limits of such assays
- measurement_setup: source organism: Mycobacterium leprae
property_measured: Kd (nM)

>>> numeric_value("YPACEAIGL")
854

====

- target_entity: HLA-A*11:01
- procedure_summary: IEDB peptide-MHC binding, purified MHC/competitive/fluorescence; bounds were set here for any values at or beyond the usual limits of such assays
- measurement_setup: source organism: Vaccinia virus WR
pIC50: −log10 of the molar value.
property_measured: pIC50

>>> result("ANGSLFTEQ")
"≤ 3.98"
